# Tested on: LLC-PK1
# METHOD_SUMMARY: Cytotoxic activity against mammalian cells in tissue culture (MTT)
# Format: cell-based, pig
# APPLIED_CONDITIONS: LLC-PK1, 120 h, MTT
ASSAY_METRIC: Cytotoxicity IC50 LLC-PK1

[[record]]
compound = "CC1OC(O[C@H]2/C=C/C=C/C=C/C=C/CC/C=C/C=C/[C@H](C)[C@@H](O)[C@@H](C)[C@H](C)OC(=O)C[C@H](O)C[C@H](O)C[C@H](O)CC[C@@H](O)[C@H](O)CC3(O)C[C@H](O)[C@@H](C(=O)O)[C@H](C2)O3)C(O)C(NC(=S)NCC(C)(C)CN(C)C)C1O (some centres unmarked)"
assay_metric = "Cytotoxicity IC50 LLC-PK1"
reading = ">100 µg/mL"

[[record]]
compound = "CC1OC(O[C@H]2/C=C/C=C/C=C/C=C/CC/C=C/C=C/[C@H](C)[C@@H](O)[C@@H](C)[C@H](C)OC(=O)C[C@H](O)C[C@H](O)C[C@H](O)CC[C@@H](O)[C@H](O)CC3(O)C[C@H](O)[C@@H](C(=O)O)[C@H](C2)O3)C(O)C(NC(=S)NCCCN(C)C)C1O (some centres unmarked)"
assay_metric = "Cytotoxicity IC50 LLC-PK1"
reading = ">100 µg/mL"


---

# Test system: Human erythrocytes
# METHOD_SUMMARY: Hemotoxicity (hemolytic activity)
ASSAY_METRIC: EH10 (µg/mL)

[[record]]
compound = "C[C@@H]1[C@H](O)[C@@H](C)/C=C/C=C/CC/C=C/C=C/C=C/C=C/[C@H](O[C@@H]2O[C@H](C)[C@@H](O)[C@H](N(C)C)[C@@H]2O)C[C@@H]2O[C@](O)(C[C@@H](O)C[C@@H](O)[C@H](O)CC[C@@H](O)C[C@@H](O)CC(=O)O[C@H]1C)C[C@H](O)[C@H]2C(=O)O"
output_unit = "µg/mL"
value_relation_sign = "="
reading = 214.20

[[record]]
compound = "CCCN(CCC)[C@@H]1[C@H](O)[C@H](O[C@H]2/C=C/C=C/C=C/C=C/CC/C=C/C=C/[C@H](C)[C@@H](O)[C@@H](C)[C@H](C)OC(=O)C[C@H](O)C[C@H](O)C[C@H](O)CC[C@@H](O)[C@H](O)C[C@]3(O)C[C@H](O)[C@@H](C(=O)O)[C@H](C2)O3)O[C@H](C)[C@H]1O"
output_unit = "µg/mL"
value_relation_sign = "="
reading = 202.34

[[record]]
compound = "C[C@@H]1[C@H](O)[C@@H](C)/C=C/C=C/CC/C=C/C=C/C=C/C=C/[C@H](O[C@@H]2O[C@H](C)[C@@H](O)[C@H](NC(=O)[C@H](N)c3ccccc3)[C@@H]2O)C[C@@H]2O[C@](O)(C[C@@H](O)C[C@@H](O)[C@H](O)CC[C@@H](O)C[C@@H](O)CC(=O)O[C@H]1C)C[C@H](O)[C@H]2C(=O)O"
output_unit = "µg/mL"
value_relation_sign = ">"
reading = 300

[[record]]
compound = "CCCN(CC1(O)OCC(O)C(O)C1O)C1C(O)C(C)OC(OC2C=CC=CC=CC=CCCC=CC=CC(C)C(O)C(C)C(C)OC(=O)CC(O)CC(O)CC(O)CCC(O)C(O)CC3(O)CC(O)C(C(=O)O)C(C2)O3)C1O (centres unmarked)"
output_unit = "µg/mL"
value_relation_sign = ">"
reading = 300

[[record]]
compound = "CC1C=CC=CCCC=CC=CC=CC=CC(OC2OC(C)C(O)C(NC(=O)C(N)COC(C)(C)C)C2O)CC2OC(O)(CC(O)CC(O)C(O)CCC(O)CC(O)CC(=O)OC(C)C(C)C1O)CC(O)C2C(=O)O (centres unmarked)"
output_unit = "µg/mL"
value_relation_sign = ">"
reading = 300


---

# Tested on: LLC-PK1
# METHOD_SUMMARY: Cytotoxic activity against mammalian cells in tissue culture (MTT)
# Type: cell-based, pig
The following compounds are listed with their measured Cytotoxicity IC50 LLC-PK1 values.
ASSAY_METRIC: Cytotoxicity IC50 LLC-PK1

[[record]]
compound = "CC1OC(O[C@H]2/C=C/C=C/C=C/C=C/CC/C=C/C=C/[C@H](C)[C@@H](O)[C@@H](C)[C@H](C)OC(=O)C[C@H](O)C[C@H](O)C[C@H](O)CC[C@@H](O)[C@H](O)CC3(O)C[C@H](O)[C@@H](C(=O)O)[C@H](C2)O3)C(O)C(NC(=O)[C@H](N)CC(=O)OC(C)(C)C)C1O (stereo partly drawn) [Compound N41, N-D-(O-tert-butyl)asparagylnystatin A1]"
assay_metric = "Cytotoxicity IC50 LLC-PK1"
reading = ">100 µg/mL"

[[record]]
compound = "CC1OC(O[C@H]2/C=C/C=C/C=C/C=C/CC/C=C/C=C/[C@H](C)[C@@H](O)[C@@H](C)[C@H](C)OC(=O)C[C@H](O)C[C@H](O)C[C@H](O)CC[C@@H](O)[C@H](O)CC3(O)C[C@H](O)[C@@H](C(=O)O)[C@H](C2)O3)C(O)C(NC(=O)[C@H](N)Cc2cccc3ccccc23)C1O (some centres unmarked) [Compound N39]"
assay_metric = "Cytotoxicity IC50 LLC-PK1"
reading = ">100 µg/mL"

[[record]]
compound = "C[C@@H]1[C@H](O)[C@@H](C)/C=C/C=C/CC/C=C/C=C/C=C/C=C/C(O[C@H]2O[C@H](C)[C@@H](O)[C@H](N)[C@@H]2O)CC2O[C@](O)(CC(O)C(O)CCC(O)CC(O)CC(O)CC(=O)O[C@H]1C)CC(O)C2C(=O)O (some centres unmarked) [Nystatin, Nystatin A1]"
assay_metric = "Cytotoxicity IC50 LLC-PK1"
reading = ">100 µg/mL"

[[record]]
compound = "CCCN(CCC)[C@@H]1[C@H](O)[C@H](O[C@H]2/C=C/C=C/C=C/C=C/CC/C=C/C=C/[C@H](C)[C@@H](O)[C@@H](C)[C@H](C)OC(=O)C[C@H](O)C[C@H](O)C[C@H](O)CC[C@@H](O)[C@H](O)C[C@]3(O)C[C@H](O)[C@@H](C(=O)O)[C@H](C2)O3)O[C@H](C)[C@H]1O [Compound N22, N,N-di-n-propylnystatin A1]"
assay_metric = "Cytotoxicity IC50 LLC-PK1"
reading = ">100 µg/mL"

[[record]]
compound = "CC1OC(O[C@H]2/C=C/C=C/C=C/C=C/CC/C=C/C=C/[C@H](C)[C@@H](O)[C@@H](C)[C@H](C)OC(=O)C[C@H](O)C[C@H](O)C[C@H](O)CC[C@@H](O)[C@H](O)CC3(O)C[C@H](O)[C@@H](C(=O)O)[C@H](C2)O3)C(O)C(NC(=O)[C@H](N)CCC(=O)OC(C)(C)C)C1O (stereo partly drawn) [Compound N37, N-D-(O-tert-butyl)glutamylnystatin A1]"
assay_metric = "Cytotoxicity IC50 LLC-PK1"
reading = "85.5 ± 4.30 µg/mL"


---

# Test system: Human erythrocytes
# METHOD_SUMMARY: Hemotoxicity (hemolytic activity)
# APPLIED_CONDITIONS: human erythrocytes; concentration causing 10% of hemolysis
# Method: The hemotoxicity determination were carried out by the serial dilutions method, according to the procedure described earlier (Ślisz, M., et al., E., J Antibiot 57: 669-678 (2004)). Human erythrocytes were suspensed in the solution of saline to obtain a cell density of suspension 2×10^7/ml. […] The concentration of hemoglobin in supernatant after centrifugation of erythrocytes suspension were determined by measuring the absorbance at wavelength λ=540 nm (A540). […]
ASSAY_METRIC: EH10 (µg/mL)

[[record]]
compound = "C[C@@H]1[C@H](O)[C@@H](C)/C=C/C=C/CC/C=C/C=C/C=C/C=C/C(O[C@H]2O[C@H](C)[C@@H](O)[C@H](N)[C@@H]2O)CC2O[C@](O)(CC(O)C(O)CCC(O)CC(O)CC(O)CC(=O)O[C@H]1C)CC(O)C2C(=O)O (stereo partly shown) [Nystatin, Nystatin A1]"
assay_system = "Human erythrocytes"
output_unit = "µg/mL"
value_relation_sign = "="
reading = 22.13

[[record]]
compound = "CC1OC(O[C@H]2/C=C/C=C/C=C/C=C/CC/C=C/C=C/[C@H](C)[C@@H](O)[C@@H](C)[C@H](C)OC(=O)C[C@H](O)C[C@H](O)C[C@H](O)CC[C@@H](O)[C@H](O)CC3(O)C[C@H](O)[C@@H](C(=O)O)[C@H](C2)O3)C(O)C(NC2CC(=O)N(CCN3CCCCC3)C2=O)C1O (stereo partly shown) [Compound N8]"
assay_system = "Human erythrocytes"
output_unit = "µg/mL"
value_relation_sign = "="
reading = 150.73

[[record]]
compound = "C[C@@H]1[C@H](O)[C@@H](C)/C=C/C=C/CC/C=C/C=C/C=C/C=C/[C@H](O[C@@H]2O[C@H](C)[C@@H](O)[C@H](NC(=O)[C@@H](N)Cc3ccc([N+](=O)[O-])cc3)[C@@H]2O)C[C@@H]2O[C@](O)(C[C@@H](O)C[C@@H](O)[C@H](O)CC[C@@H](O)C[C@@H](O)CC(=O)O[C@H]1C)C[C@H](O)[C@H]2C(=O)O [Compound N40, N-L-(4-nitrophenyl)alanylnystatin A1]"
assay_system = "Human erythrocytes"
output_unit = "µg/mL"
value_relation_sign = ">"
reading = 300

[[record]]
compound = "CC1OC(O[C@H]2/C=C/C=C/C=C/C=C/CC/C=C/C=C/[C@H](C)[C@@H](O)[C@@H](C)[C@H](C)OC(=O)C[C@H](O)C[C@H](O)C[C@H](O)CC[C@@H](O)[C@H](O)CC3(O)C[C@H](O)[C@@H](C(=O)O)[C@H](C2)O3)C(O)C(NC(=S)NCCCN(C)C)C1O (stereo partly shown) [Compound N17]"
assay_system = "Human erythrocytes"
output_unit = "µg/mL"
value_relation_sign = "="
reading = 156.33

[[record]]
compound = "CNC(C)(C)C(=O)NC1C(O)C(C)OC(O[C@H]2/C=C/C=C/C=C/C=C/CC/C=C/C=C/[C@H](C)[C@@H](O)[C@@H](C)[C@H](C)OC(=O)C[C@H](O)C[C@H](O)C[C@H](O)CC[C@@H](O)[C@H](O)CC3(O)C[C@H](O)[C@@H](C(=O)O)[C@H](C2)O3)C1O (stereo partly shown) [Compound N43]"
assay_system = "Human erythrocytes"
output_unit = "µg/mL"
value_relation_sign = "="
reading = 283.84

[[record]]
compound = "CC1OC(O[C@H]2/C=C/C=C/C=C/C=C/CC/C=C/C=C/[C@H](C)[C@@H](O)[C@@H](C)[C@H](C)OC(=O)C[C@H](O)C[C@H](O)C[C@H](O)CC[C@@H](O)[C@H](O)CC3(O)C[C@H](O)[C@@H](C(=O)O)[C@H](C2)O3)C(O)C(NCc2ccccc2)C1O (stereo partly shown) [Compound N21, N-benzylnystatin A1]"
assay_system = "Human erythrocytes"
output_unit = "µg/mL"
value_relation_sign = "="
reading = 91.60

[[record]]
compound = "CC1OC(O[C@H]2/C=C/C=C/C=C/C=C/CC/C=C/C=C/[C@H](C)[C@@H](O)[C@@H](C)[C@H](C)OC(=O)C[C@H](O)C[C@H](O)C[C@H](O)CC[C@@H](O)[C@H](O)CC3(O)C[C@H](O)[C@@H](C(=O)O)[C@H](C2)O3)C(O)C(NC(=S)NCC(C)(C)CN(C)C)C1O (stereo partly shown) [Compound N19]"
assay_system = "Human erythrocytes"
output_unit = "µg/mL"
value_relation_sign = "="
reading = 209.91


All figures here come from patent US9447136B2.
